Target: T1, TNFR1 (Homo sapiens, UniProt P19438)
T1 chain: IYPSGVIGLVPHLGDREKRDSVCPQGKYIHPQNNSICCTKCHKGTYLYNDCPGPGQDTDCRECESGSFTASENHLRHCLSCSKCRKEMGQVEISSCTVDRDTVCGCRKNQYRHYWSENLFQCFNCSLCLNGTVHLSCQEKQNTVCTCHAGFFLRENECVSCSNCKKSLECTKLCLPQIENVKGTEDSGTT
Test: yeast display SC50
I'd appreciate it if you marked entries class 1 when apparent Kd (screen) is lower than 0.9 nM and class 0 when it is not.

[[record]]
binder = "G54S (designed binder) MTLQELLREEALRRAEAEAFRYALELLAEKFPEQKEYLLDLAEEIESQIRSLSSVDVEDVRKFLDKEWAWVKELLAEHPAELAEVEAARAARLAELRAEVEAKVAA"
class_assignment = "class 0"

[[record]]
binder = "A11Q (designed binder) MTLQELLREEQLRRAEAEAFRYALELLAEKFPEQKEYLLDLAEEIESQIRSLSGVDVEDVRKFLDKEWAWVKELLAEHPAELAEVEAARAARLAELRAEVEAKVAA"
class_assignment = "class 1"

[[record]]
binder = "A87T (designed binder) MTLQELLREEALRRAEAEAFRYALELLAEKFPEQKEYLLDLAEEIESQIRSLSGVDVEDVRKFLDKEWAWVKELLAEHPAELAEVETARAARLAELRAEVEAKVAA"
class_assignment = "class 0"

[[record]]
binder = "A98N (designed binder) MTLQELLREEALRRAEAEAFRYALELLAEKFPEQKEYLLDLAEEIESQIRSLSGVDVEDVRKFLDKEWAWVKELLAEHPAELAEVEAARAARLAELRNEVEAKVAA"
class_assignment = "class 1"

[[record]]
binder = "E58R (designed binder) MTLQELLREEALRRAEAEAFRYALELLAEKFPEQKEYLLDLAEEIESQIRSLSGVDVRDVRKFLDKEWAWVKELLAEHPAELAEVEAARAARLAELRAEVEAKVAA"
class_assignment = "class 1"

[[record]]
binder = "A76V (designed binder) MTLQELLREEALRRAEAEAFRYALELLAEKFPEQKEYLLDLAEEIESQIRSLSGVDVEDVRKFLDKEWAWVKELLVEHPAELAEVEAARAARLAELRAEVEAKVAA"
class_assignment = "class 1"

[[record]]
binder = "T2H (designed binder) MHLQELLREEALRRAEAEAFRYALELLAEKFPEQKEYLLDLAEEIESQIRSLSGVDVEDVRKFLDKEWAWVKELLAEHPAELAEVEAARAARLAELRAEVEAKVAA"
class_assignment = "class 1"

[[record]]
binder = "V57W (designed binder) MTLQELLREEALRRAEAEAFRYALELLAEKFPEQKEYLLDLAEEIESQIRSLSGVDWEDVRKFLDKEWAWVKELLAEHPAELAEVEAARAARLAELRAEVEAKVAA"
class_assignment = "class 0"


Data credit: paper PMC12416549
